The reported numbers originate from the supplement of paper PMC9170038.

Entries and their apparent KD of MS2 coat protein values follow.
- System: MS2 coat protein
- PROCEDURE SUMMARY: apparent KD of MS2 coat protein; higher = weaker reporter binding
- EXPERIMENTAL CONTEXT: Eterna round: R107; input ligand: theophylline 20 uM
Numbers only; they are read as nM.

Recorded apparent KD of MS2 coat protein, per entry:
UUCAGCUAGUCGGCCGCCACUACAUGAGGAUCACCCAUGUAAUCCUAACACUGCUUCGGCAGUGGUAGGACCGGGACUAGCUGAG; 14.3
CACGAAAGAUCGGCCGCCACUAAUCUAUGUGUACUAGCACAUGAGGAUCACCCAUGUUCUUGCGUUAGGACCGGGAUUGAGCGUG [#03 Exclusion Tryptophan B]; 27.6
AGUGUAUCCAUCGAUACCAGCCACAACGUAACAUACACAUGAGGAUCACCCAUGUUGUGUGGCCCUUGGCAGCGGUGCCUGUGUA [Same State - Theophylline B Attempt #1 (HarryS)]; 16.4
GCUAGCCGAAAGGCUAGCAGCGCUACAGAAGGAGCGUGCGAAAGCACAGGUAGGUCGCUGAACAUGAGCAUCAGCCAUGUUGCGC [SSAA - Alter Amptam #2 V2+NP]; 18.5

# ---- query sequence ----
Look up apparent KD of MS2 coat protein for this sequence: ACAUGAGGAUCACCCAUGUAUUACCGGGAAGGAGCGGCCGGAAGGCCAGGUAGGUCGCUCGGCGUCGUGCUGUAAAGCACGACGA [#1 Same State - Arginine A Attempt #27 (HarryS)]
18.4

----------
- Test system: MS2 coat protein
- PROCEDURE SUMMARY: apparent KD of MS2 coat protein; designed switch direction (-1 OFF switch, 1 ON switch): 1; higher = weaker reporter binding
- EXPERIMENTAL CONTEXT: input ligand: microRNA oligo, concentration not stated
Entries and their apparent KD of MS2 coat protein values follow.

Recorded apparent KD of MS2 coat protein, per entry:
UUGCUCGUGUGAGGAUAUGCAGCCGUUUCGGCUGCAGAAGGUACUAUAAUACAUGAGGAUCACCCAUGUCUCUGUUGUUUAGUG [salish99_SSNG1_r04_928] (Eterna round: R96, puzzle: Same State NG 1); 27.8 nM
GCGAGCGUACUUGCAACAUGAGGAUCACCCAUGUUAACUGGACAGGAUAUGGUACCGUUUCGGUACCAGAAGGGUUCCUCAUUG [JL SSNG3 3.63] (Eterna round: R96, puzzle: Same State NG 3); 34.7 nM
CCGAUGUAUGGAGGAUAUGGAGCCUUAUUGGCUCCAGAAGGCUAAUAACAUGAGGAUCACCCAUGUCGGCGGUCUAAUGACCGA [Eli NG1ss - 55] (Eterna round: R96, puzzle: Same State NG 1); 49.3 nM

Look up apparent KD of MS2 coat protein for this sequence: CUGCUCGUGUGAGGAUAUGCCGCCGUUUCGGCUGCAGAAGGUGCUACGUUACAUGAGGAUCACCCAUGUCUCUGUUGUUUCGUG [salish99_SSNG1_r04_944] (Eterna round: R96, puzzle: Same State NG 1)
15.8 nM

Look up apparent KD of MS2 coat protein for this sequence: GCGAGCGUACUUGCAGACAUGAGGAUCACCCAUGUAACUGGACAGGAUAUGGUACCGUUUCGGUACCAGAAGGGUCCAUAUGUC [JL SSNG3 3.54] (Eterna round: R96, puzzle: Same State NG 3)
115 nM

Look up apparent KD of MS2 coat protein for this sequence: GUAGCAUACCGAGGAUAUUCAUAAUACAUGAGGAUCACCCAUGUAAGGCCACAUUAGUGGCCUUGGGAGAAGGCGGAAUGCUAC [Xeonanis - 20 Mod43] (Eterna round: R96, puzzle: Same State NG 2)
35.7 nM

----------
Entries and their apparent KD of MS2 coat protein values follow.
- Test system: MS2 coat protein
- PROCEDURE SUMMARY: apparent KD of MS2 coat protein; designed switch direction (-1 OFF switch, 1 ON switch): 1; higher = weaker reporter binding
- EXPERIMENTAL CONTEXT: Eterna round: R95; input ligand: none
Numbers only; they are read as nM.

CGUAGGUAGCUGGAGGAUAUUCGAGUGGUAACAUGAGGAUCACCCAUGUGGAGUUAGGUACAUGAGGAGAAGGCUAGCUGCCUGC [JL-ss2-3.18 JL mod] (puzzle: Same State 2); 27.4
GGCUAUCGCGUACGAUAGCUGAAGCGUGUACAUGAGGAUCACCCAUGUCAUGUACAAGCUUUUUGCUCGUCUUAUUG [JL-shm-2.33 JL mod] (puzzle: Sensor for hsa-mir-208a); 328

# ---- query sequence ----
MS2 coat protein / apparent KD of MS2 coat protein / UUUAGGAACGGGCAGGAUAUGUAUUAAAAUACAUGAGGAUCACCCAUGUGCGGGUAUAACACCCGACAGAAGGGCCAAUCGUUCC [Laonerce - 9] (puzzle: Same State 2) : value?
231

----------
- System: MS2 coat protein
- PROCEDURE SUMMARY: apparent KD of MS2 coat protein; higher = weaker reporter binding
- EXPERIMENTAL CONTEXT: Eterna round: R107; input ligand: theophylline 20 uM
OBSERVABLE: apparent KD of MS2 coat protein (nM)
Numbers only; they are read as nM.

Recorded apparent KD of MS2 coat protein, per entry:
AAUAACAUGAGGAUCACCCAUGUAAAAGAUACCAGAUGCAUGAUGAUCCCUUGGCAGCUUAACGCUGAUUGGAAACAAUCAGCGA [Mat - Same State Theophlline A - Mod of Eli - D9]; 62.1
GUGGACAUGAGGAUCACCCAUGUAAGUCGGCGAGGACCGGUACGGCCGCCACUCGUGUUCUGUCUCAGCUCAAACGUAGCCGGAA [theeternabot_sameState_MS2_Trp_A_13]; 51.8
GGCGACAUGAGGAUCACCCAUGUGACACCUCGAGGACCGGUACGGCCGCCACUCGUAACCUGCACUAUAGCUACCACGAUUAGCC [theeternabot_sameState_MS2_Trp_A_44]; 238
UAUCUACAUGAAUAGGUUAUUCGAUUAUUUCGAGGACCGGUACGGCCGCCACUCGUUAACAUAUACAUGAGGAUCACCCAUGUUA [JR_Nu_SSTryptoA_Sub024]; 22.7

# ---- query sequence ----
Look up apparent KD of MS2 coat protein for this sequence: AUGUAGCCGUCGACUGUACCUUAUGCCGAUACCAGCUACCCGUGAAGCCCUUGGCAGCGGGAAACAUGAGGAUCACCCAUGUCAG [theeternabot_exclusion_MS2_Theo_A_13]
29.6

----------
- Test system: MS2 coat protein
- PROCEDURE SUMMARY: apparent KD of MS2 coat protein; designed switch direction (-1 OFF switch, 1 ON switch): -1; higher = weaker reporter binding
- EXPERIMENTAL CONTEXT: input ligand: microRNA oligo, concentration not stated
Entries and their apparent KD of MS2 coat protein values follow.
Numbers only; they are read as nM.

UUAGAUAGGUCAGGAUAUCGAUGAUUGAAUAGUAUGAUUUACAUGAGGAUCACCCAUGUUAAAUACGAGAAGGGACGUUAGAUU [JR_ExcNG2_Sub021] (Eterna round: R96, puzzle: Exclusion NG 2); 17.9
GCUAGAGCAGGAUAUUCAAAACCUCACAUGAGGAUCACCCAUGUGGCCGAAAGGCCGGGAGGAGAAGGGCUCUAGC [Mat - Exclusion 5 - Eli mod - D84] (Eterna round: R96, puzzle: Exclusion 5); 14.3
AGUAGUUGUUUCCGUUCUUACAUGAGGAUCACCCAUGUUUCUUGACGUGCACGCGAUGCUCGUCAGACUACCAGAUG [salish99_TOv1_r3_057] (Eterna round: R96, puzzle: Sensor v3, turn-off variant 1); 37.4
UUAUACGGUGAGGAUAUCUUCACUAAAGUGUGAAGAGAAGGCGCUACAUGAGGAUCACCCAUGUCUAUGGGCAG [Ex-6 Malc#17] (Eterna round: R96, puzzle: Exclusion 6); 331

# ---- query sequence ----
Look up apparent KD of MS2 coat protein for this sequence: GGGACCCUUGUAGGAUAUAGAACCGCAGGAGGUCUAGAAGGGCACUGGUCGCCGUGGACAUGAGGAUCACCCAUGUGUUUGCCC [Eternabot solution 36] (Eterna round: R96, puzzle: Exclusion NG 1)
40.2

----------
- System: MS2 coat protein
- PROCEDURE SUMMARY: apparent KD of MS2 coat protein; designed switch direction (-1 OFF switch, 1 ON switch): -1; higher = weaker reporter binding
- EXPERIMENTAL CONTEXT: Eterna round: R95; input ligand: none
OBSERVABLE: apparent KD of MS2 coat protein (nM)
Numbers only; they are read as nM.

Recorded apparent KD of MS2 coat protein, per entry:
AAGUACCGUCACGAUAGUGAUGGUACAGCAAGCAAAUGUACAUGAGGAUCACCCAUGUCCUCUUUUGCUCGUCUUAU [Sensor 3 - 98] (puzzle: Sensor v3, turn-off variant 2); 53.2
AGUAACUAUCACGAAAGUGAUAGUUACAAAACAGGUGAAACAUGAGGAUCACCCAUGUCCUCAUUUGCUCGUCUUAU [Sensor 3 - 3] (puzzle: Sensor v3, turn-off variant 2); 857
GGUACUAUCACCUGAGUGGUAGUGCUAUAAGCUUGUGAUACAUGAGGAUCACCCAUGUCCUCAUUUGCUCGUCUUAU [JL-sv3-2.29 JL mod] (puzzle: Sensor v3, turn-off variant 2); 824

Look up apparent KD of MS2 coat protein for this sequence: AGUACUAACACGACAGUGUUAGUACAAUAAGCUUGUGAAACAUGAGGAUCACCCAUGUCCUCAUAAGCUCGUCUUAU [salish99_TOv2_r3_031] (puzzle: Sensor v3, turn-off variant 2)
15.2

Look up apparent KD of MS2 coat protein for this sequence: CUUGAGUGACAAGCUUUUUGCUCGUCUGUUAUUGAUGCUACAUGAGGAUCACCCAUGUUUAAGAUGUGUGAGGAUGG [JR_SV3TOV2_Sub054] (puzzle: Sensor v3, turn-off variant 2)
35.6
